- System: OVCAR-4
- ASSAY SUMMARY: NCI tumour cell line growth inhibition, 48 h
Active and inactive are the calls of the source. Rule as the data show it: active = GI50 up to about 1.1 µM and inactive = higher.
GI50 listing for selected compounds.

Solved entries (count: 3):
- CCN(CC)C1C(=O)NC1C#Cc1ccccc1 (stereo not drawn): > 100 µM (inactive)
- CC1=CC(=O)/C(=C/NC(=S)Nc2ccc(S(N)(=O)=O)cc2)C(=O)O1: > 100 µM (inactive)
- Oc1cccc2cc(Br)cnc12: 2.86 µM (inactive)

Q. What GI50 value was documented for this compound, O=C(O)/C=C/c1c[nH]cn1 ?
A. > 500 µM (inactive)

---

- Tested on: M19-MEL
- ASSAY SUMMARY: NCI tumour cell line growth inhibition, 48 h
Active and inactive are the calls of the source. Cut-off read from the data, not from the text of the source: active = GI50 up to about 1.1 µM and inactive = higher.
MEASUREMENT NAME: GI50

• COc1cccc2c1C(CO)N1C(C#N)C3CC(C(=O)O)C(C1C2)N3C (configuration not stated) = 3.54 µM (inactive)
• CC1CCCc2c1c1ccc3c(O)cccc3c1oc2=O (configuration not stated) = > 100 µM (inactive)
• COc1ccc(-c2nnc3c4ccccc4sn23)cc1 = 22.5 µM (inactive)

Q. Give M19-MEL GI50 for COc1cc2c(cc1O)[C@H](Cc1ccc(Oc3cc(C[C@H]4c5cc(OC)c(OC)cc5CCN4C)ccc3OC)cc1)NCC2
A. 22.6 µM (inactive)

Q. Please give the result for COc1cc([C@@H]2c3cc4c(cc3[C@@H](NC(=O)c3cccc(F)c3)C3COC(=O)[C@@H]32)OCO4)cc(OC)c1O (some centres not stated) too.
A. 3.22 µM (inactive)

Q. Please give the result for COC(=O)C(CC=O)C(=O)C(=O)Nc1cccc(C(F)(F)F)c1 (configuration not stated) too.
A. > 100 µM (inactive)

Q. Please give the result for CCC(=O)N1C(=O)OCC1C(C)C (configuration not stated) too.
A. > 100 µM (inactive)
